This collection of values is drawn from patent US20260116991A1.

Target Or System: monkey GPC3-His protein (monkey)
Assay Info: ELISA, monkey GPC3-His coated; antibody 0.53 nM
Exercise: for every item that follows, state its recorded OD450 nm.
Please respond with just the number, no unit label.

Q. Specify measured OD450 nm for hAb007LH3L1 (antibody, human IgG1, V domains shown) VH: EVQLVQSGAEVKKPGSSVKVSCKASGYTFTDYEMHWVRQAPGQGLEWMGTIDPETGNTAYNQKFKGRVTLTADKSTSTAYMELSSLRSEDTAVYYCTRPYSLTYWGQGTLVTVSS VL: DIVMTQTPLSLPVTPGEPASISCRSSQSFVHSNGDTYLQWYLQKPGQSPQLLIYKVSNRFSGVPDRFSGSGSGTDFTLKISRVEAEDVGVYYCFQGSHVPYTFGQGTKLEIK .
A. 2.17

Q. Specify measured OD450 nm for hAb006LH2L1b (antibody, human IgG1, V domains shown) VH: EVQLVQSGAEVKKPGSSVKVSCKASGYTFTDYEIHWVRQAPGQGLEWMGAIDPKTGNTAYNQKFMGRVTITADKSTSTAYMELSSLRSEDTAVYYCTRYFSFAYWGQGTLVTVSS VL: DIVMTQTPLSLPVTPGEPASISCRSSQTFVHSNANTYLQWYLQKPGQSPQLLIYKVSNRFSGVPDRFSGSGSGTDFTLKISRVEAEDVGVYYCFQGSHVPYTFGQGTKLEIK .
A. 2.57

Q. Specify measured OD450 nm for hAb005LH3L1 (antibody, human IgG1, V domains shown) VH: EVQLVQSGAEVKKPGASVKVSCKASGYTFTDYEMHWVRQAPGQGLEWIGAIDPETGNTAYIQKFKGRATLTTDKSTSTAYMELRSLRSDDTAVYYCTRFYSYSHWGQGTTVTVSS VL: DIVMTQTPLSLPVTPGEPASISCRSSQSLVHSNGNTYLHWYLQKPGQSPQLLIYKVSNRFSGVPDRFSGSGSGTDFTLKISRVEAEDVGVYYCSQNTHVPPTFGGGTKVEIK .
A. 1.15

Q. Specify measured OD450 nm for hAb007LH3L1a (antibody, human IgG1, V domains shown) VH: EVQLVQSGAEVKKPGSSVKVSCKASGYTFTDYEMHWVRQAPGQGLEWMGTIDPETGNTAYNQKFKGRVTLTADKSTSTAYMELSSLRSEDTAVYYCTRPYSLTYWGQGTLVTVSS VL: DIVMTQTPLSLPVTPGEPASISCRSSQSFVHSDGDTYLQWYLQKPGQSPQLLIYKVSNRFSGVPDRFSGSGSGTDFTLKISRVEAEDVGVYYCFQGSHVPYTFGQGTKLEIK .
A. 1.08

Q. Specify measured OD450 nm for hAb007LH1L1b (antibody, human IgG1, V domains shown) VH: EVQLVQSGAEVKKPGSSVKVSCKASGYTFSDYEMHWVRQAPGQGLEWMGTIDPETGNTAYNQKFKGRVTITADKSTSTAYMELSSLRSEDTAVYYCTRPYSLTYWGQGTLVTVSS VL: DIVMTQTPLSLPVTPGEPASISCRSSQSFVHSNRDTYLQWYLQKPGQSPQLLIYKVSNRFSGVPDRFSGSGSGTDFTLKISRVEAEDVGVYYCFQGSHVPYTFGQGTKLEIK .
A. 1.97

Q. Specify measured OD450 nm for hAb005LH1L1 (antibody, human IgG1, V domains shown) VH: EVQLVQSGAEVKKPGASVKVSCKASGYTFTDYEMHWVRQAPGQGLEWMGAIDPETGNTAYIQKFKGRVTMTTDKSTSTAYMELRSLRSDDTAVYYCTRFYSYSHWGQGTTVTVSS VL: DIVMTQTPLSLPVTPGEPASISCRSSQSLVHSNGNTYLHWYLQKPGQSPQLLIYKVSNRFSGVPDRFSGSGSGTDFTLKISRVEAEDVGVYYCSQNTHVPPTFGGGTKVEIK .
A. 1.16

Q. Specify measured OD450 nm for hAb003LH1L1a (antibody, human IgG1, V domains shown) VH: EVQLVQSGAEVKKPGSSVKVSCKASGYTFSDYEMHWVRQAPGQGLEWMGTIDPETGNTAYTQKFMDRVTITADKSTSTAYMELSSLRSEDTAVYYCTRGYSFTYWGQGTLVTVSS VL: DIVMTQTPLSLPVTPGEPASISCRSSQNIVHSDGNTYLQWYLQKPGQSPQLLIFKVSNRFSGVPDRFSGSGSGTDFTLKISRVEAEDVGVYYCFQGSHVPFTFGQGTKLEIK .
A. 2.2
